# experimental.system: human mGluR5 receptor (Homo sapiens)
# Construct: expressed in transfected cells; host or cells: HEK-293
# Sequence (P41594 21-1180 isoform P41594-2 limits assumed): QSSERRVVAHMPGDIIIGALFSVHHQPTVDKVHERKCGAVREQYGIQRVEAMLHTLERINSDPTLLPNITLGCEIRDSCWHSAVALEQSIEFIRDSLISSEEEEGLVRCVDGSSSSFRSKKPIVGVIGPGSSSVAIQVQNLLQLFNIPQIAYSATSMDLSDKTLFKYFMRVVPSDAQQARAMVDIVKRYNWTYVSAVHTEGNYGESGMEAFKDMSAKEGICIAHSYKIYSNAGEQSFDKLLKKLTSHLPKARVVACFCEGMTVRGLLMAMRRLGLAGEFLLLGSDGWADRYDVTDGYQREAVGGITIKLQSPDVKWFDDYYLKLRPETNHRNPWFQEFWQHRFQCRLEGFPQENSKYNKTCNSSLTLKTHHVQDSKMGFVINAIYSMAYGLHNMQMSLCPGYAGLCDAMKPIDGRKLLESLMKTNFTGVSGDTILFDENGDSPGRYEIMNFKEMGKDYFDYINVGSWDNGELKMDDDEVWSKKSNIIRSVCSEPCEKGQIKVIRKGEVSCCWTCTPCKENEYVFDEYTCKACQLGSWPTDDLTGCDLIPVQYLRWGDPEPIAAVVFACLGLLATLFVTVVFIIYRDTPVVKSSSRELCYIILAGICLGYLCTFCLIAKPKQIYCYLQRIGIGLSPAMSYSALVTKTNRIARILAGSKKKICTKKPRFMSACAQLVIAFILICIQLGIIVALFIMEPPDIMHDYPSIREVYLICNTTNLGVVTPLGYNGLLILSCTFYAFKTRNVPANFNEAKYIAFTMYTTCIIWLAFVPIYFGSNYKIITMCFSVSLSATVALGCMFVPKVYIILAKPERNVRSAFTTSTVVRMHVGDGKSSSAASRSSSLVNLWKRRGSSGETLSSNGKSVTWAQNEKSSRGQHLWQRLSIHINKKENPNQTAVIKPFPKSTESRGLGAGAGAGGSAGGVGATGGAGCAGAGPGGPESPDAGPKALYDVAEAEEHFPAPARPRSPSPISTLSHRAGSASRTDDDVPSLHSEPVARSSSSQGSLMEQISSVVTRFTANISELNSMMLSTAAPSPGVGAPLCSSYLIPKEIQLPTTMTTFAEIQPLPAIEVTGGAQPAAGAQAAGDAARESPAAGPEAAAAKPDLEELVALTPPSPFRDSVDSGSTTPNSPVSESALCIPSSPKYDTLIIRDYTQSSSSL
# method.notes: Functional Assay 1: intracellular Ca2+ mobilization, positive allosteric modulation of glutamate EC20 response
# Type: cell-based
# test.parameters: human mGluR5 over-expressing HEK-293 cells, glutamate EC20 (~0.2 μM); updated value
metric.name: EC50 (µM)
Report as a plain number; the unit µM is understood.

Recorded EC50, per entry:
>  <molecular.string>
O=C1c2sc(OCc3cccc(F)c3)nc2CCN1c1ccc(C(F)(F)F)cc1

>  <EC50 [µM]>
0.214

$$$$
>  <molecular.string>
O=C1c2sc(OCc3ccccc3)nc2CCN1Cc1ccccc1F

>  <EC50 [µM]>
5.37

$$$$

With those in mind, consider the next compound.
Asked: Form: Entry = O=C1c2sc(OCc3ccccc3)nc2CCN1c1ccc(F)cc1F | System = human mGluR5 receptor (Homo sapiens) | EC50 = ____
Given back: 1.95

====

Each record here notes measured EC50.
# experimental.system: human mGluR5 receptor (Homo sapiens)
# Construct: expressed in transfected cells; host or cells: HEK-293
# method.notes: Functional Assay 1: intracellular Ca2+ mobilization, positive allosteric modulation of glutamate EC20 response
# Format: cell-based
# test.parameters: human mGluR5 over-expressing HEK-293 cells, glutamate EC20 (~0.2 μM); updated value
Write the number in µM without appending the unit.

For orientation, consider the following solved cases.
>  <molecular.string>
O=C1c2sc(OCc3ccccc3)nc2CCN1Cc1ccc(F)cc1

>  <experimental.system>
human mGluR5 receptor (Homo sapiens)

>  <unit.descriptor>
µM

>  <EC50>
5.13

$$$$
>  <molecular.string>
O=C1c2sc(OCc3cccc(F)c3)nc2CCN1c1ccc(F)cc1F

>  <experimental.system>
human mGluR5 receptor (Homo sapiens)

>  <unit.descriptor>
µM

>  <EC50>
0.692

$$$$
>  <molecular.string>
O=C1c2sc(OCc3ccccc3)nc2CCN1Cc1cccc(F)c1

>  <experimental.system>
human mGluR5 receptor (Homo sapiens)

>  <unit.descriptor>
µM

>  <EC50>
3.72

$$$$

Now let's try a different one.
Asked: I have this compound here, O=C1c2sc(OCc3cccc(F)c3)nc2CCN1c1cccc(F)c1 , and I need its recorded EC50.
Given back: 0.11

====

# experimental.system: human mGluR5a receptor (Homo sapiens)
# Construct: host or cells: HEK293A (monoclones H10H and H12H)
# method.notes: Functional Assay 2: Ca2+ mobilization, HEK cells with human mGluR5a receptor (H10H cell line)
# Format: cell-based
# test.parameters: HEK293; H10H cell line; maximum average response at a single concentration, relative to glutamate ECMax
Listed here are compounds together with their documented Emax.
Reply numerically in %, unit not repeated.

Known Emax results, listed for orientation:
>  <molecular.string>
Cc1ccnc(N2CCc3nc(COc4ccccc4)sc3C2=O)c1

>  <experimental.system>
human mGluR5a receptor (Homo sapiens)

>  <Emax (%)>
75

$$$$
>  <molecular.string>
CN1CCc2nc(COc3ccccc3)sc2C1=O

>  <experimental.system>
human mGluR5a receptor (Homo sapiens)

>  <Emax (%)>
77

$$$$
>  <molecular.string>
O=C1c2sc(COc3ccccc3)nc2CCN1c1ccc(F)cn1

>  <experimental.system>
human mGluR5a receptor (Homo sapiens)

>  <Emax (%)>
82

$$$$

Asked: For the compound COc1ccccc1N1CCc2nc(COc3ccccc3F)sc2C1=O , what Emax is on record?
Given back: 71

Asked: Given the entry O=C1c2sc(COc3ccccc3)nc2CCN1c1ccc(F)cc1F , report its measured Emax.
Given back: 81
